Organism: Homo sapiens
Test: Effect on TXB2 formation of human platelets
Type: functional, organism-based
Recorded endpoint: IC50

Supply recorded IC50 for `CC(C)c1ccc2c(CCCCNS(=O)(=O)c3ccc(Cl)cc3)cc(S(=O)(=O)[O-])c-2cc1.[Na+]` here.
> 100 µM

Supply recorded IC50 for `COc1ccc(S(=O)(=O)NCCCCc2cc(S(=O)(=O)[O-])c3ccc(C(C)C)ccc2-3)cc1.[Na+]` here.
> 100 µM

---

System: Thromboxane A2 receptor (Oryctolagus cuniculus)
Experiment: Selectivity index for the TXA2 t-receptor was the difference between the IC50 values in the aggregation and contraction assay
Recorded endpoint: Selectivity index

A. COc1ccc(S(=O)(=O)NCCCCc2cc(S(=O)(=O)[O-])c3ccc(C(C)C)ccc2-3)cc1.[Na+]
B. CC(C)c1ccc2c(CCCCNS(=O)(=O)c3ccc(Cl)cc3)cc(S(=O)(=O)[O-])c-2cc1.[Na+]
Between A and B , which one has the lower reported Selectivity index value? Reply with the label of the item you choose.
B

Origin of the recorded values: ChEMBL document CHEMBL1126624
